biological target: Mu-type opioid receptor (Cavia porcellus, UniProt P97266); assay: Agonist activity at mu-type opioid receptor in guinea pig ileum assessed as inhibition of electrically evoked muscle contraction
Sequence (P97266 whole entry): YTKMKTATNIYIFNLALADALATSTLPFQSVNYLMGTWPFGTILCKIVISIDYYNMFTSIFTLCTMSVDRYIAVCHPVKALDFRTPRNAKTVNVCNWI
Entries whose IC50 is below 0.5 nM take y; entries at or above 0.5 nM take n.

Data request: Could you please tell me whether IC50 recorded for `C=C(C(N)=O)[C@@H](NC(=O)[C@H](Cc1c[nH]c2ccccc12)NC(=O)[C@H]1CCN(C(=O)[C@@H](N)Cc2ccc(O)cc2)C1)c1ccco1` is less than 0.5 nM?
Data returned: n

Data request: Could you please tell me whether IC50 recorded for `C=C(C(=O)O)[C@@H](NC(=O)[C@H](Cc1c[nH]c2ccccc12)NC(=O)[C@@H]1CCCN1C(=O)[C@@H](N)Cc1c(C)cc(O)cc1C)c1ccco1` is less than 0.5 nM?
Data returned: n

Data request: Could you please tell me whether IC50 recorded for `C=C(C(N)=O)[C@@H](NC(=O)[C@H](Cc1c[nH]c2ccccc12)NC(=O)[C@@H]1CCN(C(=O)[C@@H](N)Cc2ccc(O)cc2)C1)c1ccccc1` is less than 0.5 nM?
Data returned: n

Data request: Could you please tell me whether IC50 recorded for `C=C(C(N)=O)[C@@H](NC(=O)[C@H](Cc1c[nH]c2ccccc12)NC(=O)[C@@H]1CCN(C(=O)[C@@H](N)Cc2c(C)cc(O)cc2C)C1)c1ccco1` is less than 0.5 nM?
Data returned: y

Data request: Could you please tell me whether IC50 recorded for `C=C(C(N)=O)[C@@H](NC(=O)[C@H](Cc1c[nH]c2ccccc12)NC(=O)[C@H]1CCN(C(=O)[C@@H](N)Cc2c(C)cc(O)cc2C)C1)c1ccccc1` is less than 0.5 nM?
Data returned: n

Data request: Could you please tell me whether IC50 recorded for `C=C(C(N)=O)[C@@H](NC(=O)[C@H](Cc1c[nH]c2ccccc12)NC(=O)[C@H]1CCN(C(=O)[C@@H](N)Cc2c(C)cc(O)cc2C)C1)c1ccco1` is less than 0.5 nM?
Data returned: n

Data request: Could you please tell me whether IC50 recorded for `C=C(C(N)=O)[C@@H](NC(=O)[C@H](Cc1c[nH]c2ccccc12)NC(=O)[C@@H]1CCN(C(=O)[C@@H](N)Cc2c(C)cc(O)cc2C)C1)c1ccccc1` is less than 0.5 nM?
Data returned: y
